system: Sclerotium cepivorum; experiment: Example 1: in vitro growth on agar plates containing organic acids; type: cell-based; conditions: first round, concentrations of Tables 1A and 1B
property_name: effect on growth of S. cepivorum (in words)

GET /values?readout=effect on growth of S. cepivorum (in words)&item= CC(O)C(=O)O (racemic) [Lactate DL (RS racemic mix), reference compound]
inhibited growth

GET /values?readout=effect on growth of S. cepivorum (in words)&item= C[C@H](O)C(=O)O [Lactate L (S), L-lactic acid]
inhibited growth
